B1: C10orf62 (parent)
chain: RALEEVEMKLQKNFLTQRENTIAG

# Variants of: B1
# Method Description: protein stability index of a GFP-peptide fusion (GPS, HEK-293T) (PSI 1-6); higher = more stable;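 further: lentivirally expressed fusions sorted by FACS into six bins by GFP to DsRed ratio, PSI derived from sequencing read proportions per bin multiplied by bin number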
# Experimental Parameters: c terminus: a fixed tail appended
If the reported protein stability index equals or exceeds 4, assign label 1. If not, assign label 0.

| Polymer Sequence | Group Label |
| --- | --- |
| RALEEVEYKLQKNFLTQRENTIAG | label 0 |
| RALEEVEMKLQKNFLTQRENTIAQ | label 0 |
| RALEEVRMKLQKNFLTQRENTIAG | label 0 |
| RALEEVEMKLQKNFLTQRENTIAT | label 0 |
| RALEEVEMKLQKNFLTQRENTIAL | label 0 |
| PALEEVEMKLQKNFLTQRENTIAG | label 1 |
| RAVEEVEMKLQKNFLTQRENTIAG | label 1 |
| DALEEVEMKLQKNFLTQRENTIAG | label 1 |
| RALEEVEMKLQKNFLTQRENTYAG | label 0 |
| RALVEVEMKLQKNFLTQRENTIAG | label 0 |
| RALEEVEMKLQKNFLTQRENTICG | label 0 |
| RALPEVEMKLQKNFLTQRENTIAG | label 1 |
| RALEELEMKLQKNFLTQRENTIAG | label 0 |
| RALEEVEMKLQKNFLTQRENTIAM | label 0 |
| RALEETEMKLQKNFLTQRENTIAG | label 0 |
| RALEEVEMKLQKNFLTQRENTVAG | label 0 |
| RALEEVEMKLQKNFLTMRENTIAG | label 0 |
